Biological target: BRD4-BD1 (Homo sapiens, UniProt O60885)
Construct: 15 nM GST-BRD4-BD1 protein (aa 44-168)
Assay: BRD4-H4 tetraacetylated peptide inhibition AlphaScreen
Type: binding
Conditions: 15 nM GST-BRD4-BD1 (aa 44-168), 15 nM biotinylated Acetyl-Histone H4 (Lys5, 8, 12, 16) peptide, 30 min at RT
IC50 under 20 nM gets true, anything at or over 20 nM gets false.

CCN1C(=O)C(C)(C)c2cc3nc(-c4cc(C)c(=O)n(C)c4)n([C@@H](C)c4ccccc4)c3cc21 [I-8]: true
Cc1nc(-c2nc3cc4c(cc3n2[C@@H](C)c2ccccc2)N(C)C(=O)C4(C)C)cn(C)c1=O [I-6]: true

Inquiry: Find out if reported IC50 for CCc1nn(C)c2cc3c(cc12)nc(-c1cc(C)c(=O)n(C)c1)n3[C@@H](C)c1ccccc1 [III-3] is less than 20 nM
Reply text: true

Inquiry: Find out if reported IC50 for COC[C@H](C)n1c(-c2cc(C)c(=O)n(C)c2)nc2cc3c(cc21)N(C(C)C)C(=O)C3(C)C [I-4] is less than 20 nM
Reply text: false

----------
Molecular target: BRD4-BD1 (Homo sapiens)
Construct: 15 nM GST-BRD4-BD1 protein (aa 44-168)
Assay: BRD4-H4 tetraacetylated peptide inhibition AlphaScreen
Settings: 15 nM GST-BRD4-BD1 (aa 44-168), 15 nM biotinylated Acetyl-Histone H4 (Lys5, 8, 12, 16) peptide, 30 min at RT
pIC50: −log10 of the molar value.
Is pIC50 at least 8? Then Criterion met. If not, Criterion not met.

Study these solved cases before continuing.
Cc1cc(-c2nc3cc4c(cc3n2[C@@H](C)c2ccccc2)N(C)C(=O)C4(C)C)cn(C)c1=O: Criterion met
COC[C@H](C)n1c(-c2cc(C)c(=O)n(C)c2)nc2cc3c(cc21)N(C)C(=O)C3(C)C: Criterion not met
Cc1cc(-c2nc3cc4c(cc3n2[C@@H](C)c2ccccc2)N(C(C)C)C(=O)C4(C)C)cn(C)c1=O: Criterion met
Cc1cc(-c2nc3cc4c(cc3n2Cc2ccccn2)N(C)C(=O)C4(C)C)cn(C)c1=O: Criterion not met

Inquiry: Tell me whether pIC50 is at least 8 here: `Cc1cc(-c2nc3cc4c(C)nn(C)c4cc3n2[C@@H](C)c2ccccc2)cn(C)c1=O`
Reply text: Criterion met

----------
# maps each entry to its pIC50
Target: BRD4-BD1 (Homo sapiens, UniProt O60885)
Construct: 15 nM GST-BRD4-BD1 protein (aa 44-168)
Test: BRD4-H4 tetraacetylated peptide inhibition AlphaScreen
Settings: 15 nM GST-BRD4-BD1 (aa 44-168), 15 nM biotinylated Acetyl-Histone H4 (Lys5, 8, 12, 16) peptide, 30 min at RT
Give only the number. pIC50 is defined as minus log10 of concentration in molar units.

Solved cases (3 shown):
Cc1nc(-c2nc3cc4c(cc3n2[C@@H](C)c2ccccc2)N(C(C)C)C(=O)C4(C)C)cn(C)c1=O [I-5]: 8.05
CCn1nc(C)c2cc3nc(-c4cc(C)c(=O)n(C)c4)n([C@@H](C)c4ccccc4)c3cc21 [III-2]: 8.10
Cc1cc(-c2nc3cc4c(cc3n2[C@@H](C)c2ccccc2)C(=O)N(C)C4(C)C)cn(C)c1=O [II-1]: 7.89

We next turn to a different compound, shown below.
Inquiry: Form entry - test system: BRD4-BD1 (Homo sapiens, UniProt O60885); read-out: pIC50; compound: Cc1cc(-c2nc3cc4c(cc3n2[C@@H](C)c2ccccc2)N(C(C)C)C(=O)C42CC2)cn(C)c1=O [I-9]
Reply text: 7.77
